- assay.protocol: in vitro
- measurement.parameters: human, hela cells, % viability
parameter: viability at 28.5 h, 10 µM
Answer with the number, then the unit.

Example compounds with recorded viability at 28.5 h, 10 µM:
> print(dat)
                                   compound                   parameter  obs.value
1  Cc1ccc(CCC(=O)N2CCCC2c2nc3ccccc3[nH]2)o1 (stereo not drawn)  viability at 28.5 h, 10 µM      93.3%
2  CCCCn1c(SCCC(=O)Nc2ccccc2C(=O)c2ccccc2)n[nH]c1=O  viability at 28.5 h, 10 µM      87.3%
3     O=C(O)Cn1nnc(-c2ccc(OCc3ccccc3)cc2)n1  viability at 28.5 h, 10 µM      85.1%
4  O=C(CN1CCCC2(CCN(C(=O)c3cc(F)c(F)cc3F)C2)C1)Nc1ccc(F)c(Cl)c1 (stereo not drawn)  viability at 28.5 h, 10 µM      96.9%
5  O=C1NC2(CCN(C(=O)C(F)(F)F)CC2)Oc2ccccc21  viability at 28.5 h, 10 µM        94%
6  COc1ccc2nc(O)c(CN(c3ccccc3)S(=O)(=O)c3ccccc3)cc2c1  viability at 28.5 h, 10 µM      97.7%

Req: Give the measured viability at 28.5 h, 10 µM of CSc1nc(NN2C(=O)c3ccccc3C2=O)c2c3c(sc2n1)COC(C)(C)C3 .
Resp: 85.6%

Req: What value of viability at 28.5 h, 10 µM has been recorded for this entry: Cc1cc(NS(=O)(=O)c2c(C)nn(C)c2Cl)n(C)n1
Resp: 99.9%

Req: viability at 28.5 h, 10 µM for Cc1ncc(-c2ccc3ccccc3c2)s1 [CBK019439B] ?
Resp: 91.5%

Req: // query viability at 28.5 h, 10 µM value for entry O=C(Nc1nc(-c2ccccc2)cs1)c1ccc(Br)cc1
Resp: 82.4%

Req: // returns reported viability at 28.5 h, 10 µM for input c1csc(C2Nc3ccccc3C3=NCCCN32)c1 (stereo not drawn)
Resp: 99.2%

Req: State the recorded viability at 28.5 h, 10 µM for this entry: COc1ccc(S(=O)(=O)Nc2cc(C(=O)O)ccc2C)cc1NC(C)=O
Resp: 93.4%

Req: Look up viability at 28.5 h, 10 µM for this compound: COc1ccc(CCCC(=O)Nc2cc(N3CCNCC3)nc(SC)n2)cc1OC [CBK050261T]
Resp: 101%

Req: Requested field: viability at 28.5 h, 10 µM. Item: CCCN1C(=O)COc2ccc(-c3noc(-c4ccccn4)n3)cc21
Resp: 92.1%

Req: Query (compound): O=C1O[C@@H](CCl)CN1c1ccc(N2CCOCC2)c(F)c1 ; field requested: viability at 28.5 h, 10 µM
Resp: 105%

Req: Using the record for COc1cccc(Nc2c(C(=O)N3CCCCC3)cnc3nc(C)ccc23)c1 , report its viability at 28.5 h, 10 µM.
Resp: 96%

Req: What value of measured viability at 28.5 h, 10 µM is listed for Cc1cc(-c2nn3c(-c4ccccc4)nnc3s2)c2ccccc2n1 ?
Resp: 101%

Req: I have this compound here, N#CCSc1nnc(NC(=O)Nc2ccccc2)s1 , and I need its recorded viability at 28.5 h, 10 µM.
Resp: 85.3%

Req: Which viability at 28.5 h, 10 µM is listed for COCC(=O)Nc1c[nH]nc1C1CCCN(c2cccc(F)c2C#N)C1 (stereo not drawn) ?
Resp: 86%

Req: What does the record list as viability at 28.5 h, 10 µM for CC(C)N1CCC2(C/C=C/CNC(=O)c3ccccc3OCCNC2=O)CC1 ?
Resp: 98.7%

====

Listing: viability at 28.5 h, 10 µM of selected compounds
- assay.protocol: in vitro
- measurement.parameters: human, hela cells, % viability
Form entry: value (%) — number only.

See these solved cases before continuing.
> print(dat)
                                   compound                   parameter  obs.value
1              COc1nc(-c2ccc(N(C)C)nc2)nn1C  viability at 28.5 h, 10 µM        100
2  Cc1cc(NC(=O)CN2CCC(CNc3ncccc3C#N)C2)on1 (stereo not shown)  viability at 28.5 h, 10 µM       87.8
3  Cc1noc(C)c1C(=O)NC(Cc1ccsc1)c1cccnc1 (stereo not shown)  viability at 28.5 h, 10 µM       90.3
4  CC(NC(=O)Cc1cccc(F)c1)c1nnc2n1CCCCC2 (stereo not shown)  viability at 28.5 h, 10 µM       85.8
5     Cc1ccc(-c2cc(C(=O)NCC3(C)COC3)no2)cc1  viability at 28.5 h, 10 µM       93.8
6        N#CCCN(C(=O)Nc1ccc(Cl)cc1)C1CCCCC1  viability at 28.5 h, 10 µM       89.1
7  Cc1ccc(C2CCCN2C(=O)C(C)Cn2cncn2)cc1C (stereo not shown)  viability at 28.5 h, 10 µM       98.9
8          CCc1cc(CNS(=O)(=O)c2ccc(C)s2)on1  viability at 28.5 h, 10 µM       99.6

Req: Reported viability at 28.5 h, 10 µM, compound CCn1c(CN2CCC(c3noc(C)n3)CC2)nc2c(F)cccc21 : ____
Resp: 91.1

Req: // query viability at 28.5 h, 10 µM value for entry CN(C)CCNC(=O)c1cncc(-c2ccc(C(=O)N3CCOCC3)cc2)c1
Resp: 95.6

====

- assay.protocol: in vitro
- measurement.parameters: human, hela cells, % viability
# viability at 28.5 h, 10 µM listing for each entry below
Give a bare numeral; the unit % is implied.

Some entries whose results are on file:
> print(dat)
                                   molecule  obs.value
1  CCN(CC(=O)N1CCN(c2cc(Cl)ccc2C)CC1)S(=O)(=O)c1ccc2ccccc2c1       92.8
2  O=C(Nc1nnc(C2=COCCO2)o1)c1ccc(-c2ccccc2)cc1       84.5
3  Cc1onc(-c2ccccc2)c1C(=O)Nc1ccccc1N1CCCNCC1 [CBK038929T]       96.9
4  CN(C)c1ccc(NC(=O)CC2Nc3ccccc3NC2=O)cc1 (stereo not drawn)       87.1

Req: Would you mind telling me what viability at 28.5 h, 10 µM value was observed for CC(=O)Oc1cc(C(F)(F)F)nc(NCc2ccc(Cl)cc2)n1 ?
Resp: 94.7

Req: // viability at 28.5 h, 10 µM lookup, key: O=C1NCCCC12CCN(Cc1cccc3cccnc13)CC2
Resp: 92.3

Req: Item under review: O=C(O)c1ccc(S(=O)(=O)NCC2CCCO2)cc1 (stereo not drawn) . Reported viability at 28.5 h, 10 µM?
Resp: 79.8

Req: # viability at 28.5 h, 10 µM lookup, item O=C1C2CCCCC2C(=O)N1CCCN1CCC(c2nc(-c3ccc(F)cc3)c3ccccn23)CC1 (stereo not drawn)
Resp: 90.1

Req: State the recorded viability at 28.5 h, 10 µM for this entry: O=C(NCc1ccccn1)c1cnn2c(C(F)(F)F)cc(-c3cccs3)nc12
Resp: 99.9

====

Overview of reported viability at 28.5 h, 10 µM across a group of compounds:
- assay.protocol: in vitro
- measurement.parameters: human, hela cells, % viability
Write it as a number; the unit % goes unstated.

Req: Given O=C(Cc1ccccc1)Nc1nnc(Cc2ccc3c(c2)OCCO3)o1 , state its recorded viability at 28.5 h, 10 µM.
Resp: 94.2

====

- assay.protocol: in vitro
- measurement.parameters: human, hela cells, % viability
Reported viability at 28.5 h, 10 µM values are given for each entry in this list.

> print(dat)
                                   compound  obs.value
1  CN(C)CCCC(O)(c1ccccc1)c1ccccc1 [CBK012599]       109%
2  CCc1c(C)nc2c(N3CCOC3=O)cccc2c1SCCC(=O)O [CBK159595T]      91.7%
3  O=C(O)C1C2CCC(CC2)C1C(=O)N1CCN(Cc2ccccc2Cl)CC1 (centres unmarked) [CBK270336]       100%
4  CN(C)CCCN(Cc1cnn(-c2ccccc2)c1)Cc1ccco1 [CBK283040]       110%

Now, please, on to the next compound.
Req: Quick one: viability at 28.5 h, 10 µM for O=C(NC1CCCOC1)c1cc(-c2ccc(F)cc2)no1 (centres unmarked) [CBK283141] ?
Resp: 107%

====

- assay.protocol: in vitro
- measurement.parameters: human, hela cells, % viability
parameter: viability at 28.5 h, 10 µM (%)
// note: answer is a bare numeric in %

# count of solved cases: 4
> print(dat)
                                   compound  obs.value
1  CCOC(NC(=O)Nc1ccc(Br)cc1)(C(F)(F)F)C(F)(F)F       91.2
2  Cc1c(CN(C)C(=O)c2ccc(COc3ccc(Cl)cc3)cc2)cnn1C       98.9
3                        CC(C)Nc1cc(Cl)ncn1        108
4                     c1ccc(SCCN2CCOCC2)cc1       97.8

Req: If you can, please state the reported viability at 28.5 h, 10 µM value of CC(=O)Nc1ccc2nc(Nc3nc4c(F)cccc4s3)sc2c1 .
Resp: 89.8

Req: Field request: viability at 28.5 h, 10 µM | item: CC(C)[C@H](CO)Nc1nccnc1-c1cccs1
Resp: 99

Each recorded value in this set is attributed to paper PMC12040169.
